These measurements were taken from patent US20030148958A1.

- TARGET OR SYSTEM: T1, corticotropin releasing factor 2 receptor; also: reference of the scale not given here
- T1 sequence (Q13324 whole entry, species assumed, looked up): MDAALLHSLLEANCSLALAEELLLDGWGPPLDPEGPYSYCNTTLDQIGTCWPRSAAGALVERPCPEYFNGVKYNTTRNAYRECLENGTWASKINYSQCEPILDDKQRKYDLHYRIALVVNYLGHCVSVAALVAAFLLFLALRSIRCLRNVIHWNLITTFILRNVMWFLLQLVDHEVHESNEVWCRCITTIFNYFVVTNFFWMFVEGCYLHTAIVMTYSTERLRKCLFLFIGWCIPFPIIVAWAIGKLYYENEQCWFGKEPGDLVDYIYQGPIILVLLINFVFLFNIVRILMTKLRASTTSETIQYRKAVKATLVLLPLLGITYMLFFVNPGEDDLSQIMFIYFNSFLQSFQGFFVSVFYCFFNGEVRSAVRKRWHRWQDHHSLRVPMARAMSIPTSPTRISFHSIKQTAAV
- EXPERIMENTAL DETAILS: cell-based or functional assay
Ends that are not written are not given here.
READOUT NAME: CRF2R Emax (%)
Report only the number, with the unit % understood.

The following binders have reported results that may help.
BINDER	UNIT SYMBOL	CRF2R Emax
IVLSLDVPIGLLQEVLEMARAEQLAQQAHSNRKLMEII-NH2 [SEQ ID NO 165]	%	75
ZGPPISIDLPFQLLRKMIEIEKQEKEKQQATTNRLLLDTV (C-terminal amide) [SEQ ID NO 16]	%	86
SQEPPISLDLTFGLLREVLEMTKADQLAQQAHSNRKLLDIA-NH2 [SEQ ID NO 88]	%	12.6
ZGPPISIDLPIPLLRKMIEIEKQEKEKQQAANNRLLLDTI (not fully specified; C-terminal amide) [SEQ ID NO 26]	%	86
ZGPPISIDLPLYLLRKMIEIEKQEKEKQQAANNRLLLDT (C-terminal amide) [SEQ ID NO 81]	%	73
ZGPPISIDLPQYLLRKMIEIEKQEKEKQQAANNRLLLDTI (C-terminal amide) [SEQ ID NO 27]	%	96
SQEPPISLDLPTQLLREVLEMTKADQLAQQAHSNRKLLDIA-NH2 [SEQ ID NO 105]	%	9.15
ZGPPISIDLPLLLLRKMIEIEKQEKEKQQAANNRLLLDTI (C-terminal amide) [SEQ ID NO 188]	%	100

Look up CRF2R Emax of ZGPPISIDLPLQLLRKMIEIEKQEKEKQQATTNARILARV (C-terminal amide) [SEQ ID NO 144] and report it.
85.5

Indicate the recorded CRF2R Emax value for this binder: ZGPPISIDLPIGLLRKMIEIEKQEKEKQQAANNRLLLDTI (C-terminal amide) [SEQ ID NO 75]
52

Give the reported CRF2R Emax for this binder. ZGPPISIDLPINLLRKMIEIEKQEKEKQQAANNRLLLDTI (C-terminal amide) [SEQ ID NO 37]
51

Give a short answer stating reported CRF2R Emax for ZGPPISIDLPFYLLRKMIEIEKQEKEKQQATTNARILARV (C-terminal amide) [SEQ ID NO 147] .
94

Return CRF2R Emax (reported value) for this binder: DNPSLSIDLPFFLLRTLLELARTQSQRERAEQNAIIFASV-NH2 [SEQ ID NO 184]
96.5

For the binder SEEPPISLDLTFHLLREVLEMARAEQLAQQAHTNARILARV-NH2 [SEQ ID NO 161] , give its reported CRF2R Emax.
88

Please give the documented CRF2R Emax of ZGPPISIDLPFVLLRKMIEIEKQEKEKQQAANNRLLLDTI (C-terminal amide) [SEQ ID NO 190]
31

Give recorded CRF2R Emax. IVLSLDVPIGLLQILLEQAKAEAAREQATTNARILARV-NH2 [SEQ ID NO 112]
100

Answer with the recorded CRF2R Emax of SQEPPISLDLTIGLLREVLEMTKADQLAQQAHSNRKLLDIA-NH2 [SEQ ID NO 86] only.
8.1

Please give measured CRF2R Emax of the following entry: ZGPPISIDLPQILLRKMIEIEKQEKEKQQAANNRLLLDTI (C-terminal amide) [SEQ ID NO 199]
92

Return CRF2R Emax (reported value) for this binder: ZGPPISIDLPTYLLRKMIEIEKQEKEKQQAANNRLLLDTI (C-terminal amide) [SEQ ID NO 70]
82

Give the reported CRF2R Emax for this binder. DNPSLSIDLPFYLLRTLLELARTQSQRERAEQNAIIFASV-NH2 [SEQ ID NO 183]
100

Please indicate CRF2R Emax recorded for DNPSLSIDLPFLLLRTLLELARTQSQRERAEQNAIIFASV-NH2 [SEQ ID NO 180]
95.7

Check the records and state CRF2R Emax for SQEPPISLDLPFHLLREVLEMTKADQLAQQAHSNRKLLDIA-NH2 [SEQ ID NO 104]
4.5

Please give the documented CRF2R Emax of IVLSLDVPIGLLQILLEQEKQEAAREQATTNARILARV-NH2 [SEQ ID NO 125]
99

Answer with the recorded CRF2R Emax for the binder listed here: ZGPPISIDLPWYLLRKMIEIEKQEKEKQQAANNRLLLDTI (C-terminal amide) [SEQ ID NO 55]
95
